# STUDY SYSTEM: PKK in kaolin activated human platelet poor plasma (Homo sapiens, UniProt P03952)
# Construct: Platelet poor plasma (PPP) obtained from human wholeblood
# Sequence (P03952 391-638 limits assumed): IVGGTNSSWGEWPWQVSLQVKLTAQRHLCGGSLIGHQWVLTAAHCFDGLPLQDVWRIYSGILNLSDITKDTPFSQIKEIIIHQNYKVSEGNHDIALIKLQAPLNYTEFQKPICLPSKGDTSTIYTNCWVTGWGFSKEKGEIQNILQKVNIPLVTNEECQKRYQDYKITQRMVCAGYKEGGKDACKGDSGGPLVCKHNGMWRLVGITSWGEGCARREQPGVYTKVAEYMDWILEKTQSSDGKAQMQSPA
# Sequence (P03952 20-390 limits assumed): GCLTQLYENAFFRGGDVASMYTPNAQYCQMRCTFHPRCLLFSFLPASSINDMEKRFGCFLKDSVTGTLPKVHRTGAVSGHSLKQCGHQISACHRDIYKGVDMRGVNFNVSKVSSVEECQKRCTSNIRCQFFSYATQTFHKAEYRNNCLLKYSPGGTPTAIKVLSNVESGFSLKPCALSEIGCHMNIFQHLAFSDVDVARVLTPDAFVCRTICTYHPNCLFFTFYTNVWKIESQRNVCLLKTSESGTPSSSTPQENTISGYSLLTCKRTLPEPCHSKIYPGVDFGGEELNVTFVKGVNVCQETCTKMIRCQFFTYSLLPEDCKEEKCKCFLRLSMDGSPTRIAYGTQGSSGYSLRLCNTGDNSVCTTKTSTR
# METHOD NOTES: Inhibition of PKK in kaolin activated human PPP;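 further: readout is the rate of fluorogenic substrate cleavage in rfu per min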
# STATED CONDITIONS: 25-750 μg/mL kaolin, global fit, text b200 calls the values IC90
Reported pIC50 is given for each of the following molecules.
pIC50 field: float, defined as -log10 of concentration (mol/L).

Some entries whose results are on file:
INSERT INTO results (molecule, study_system, reported_result) VALUES
  ('CCOc1nc(N2CC3C(C2)C3(F)F)ccc1Cn1cnc(C(=O)N[C@@H]2CCc3c2ncn3C)c1 (stereo partly shown) [Example 102]', 'PKK in kaolin activated human platelet poor plasma (Homo sapiens, UniProt P03952)', 5.84),
  ('Cn1cnc2c1CC[C@H]2NC(=O)c1cn(Cc2ccc(N3CC4(CC4)C3)nc2)cn1 [Example 74]', 'PKK in kaolin activated human platelet poor plasma (Homo sapiens, UniProt P03952)', 6.49),
  ('Cc1nc(N2CC3CC3C2)ccc1Cc1cc(C(=O)N[C@@H]2CCc3c2ncn3C)n(C)n1 (stereo partly shown) [Example 168]', 'PKK in kaolin activated human platelet poor plasma (Homo sapiens, UniProt P03952)', 5.73);

Next, consider the following molecule.
What does the data say about its pIC50? Entry: Cc1c(Cn2cc(C(=O)N[C@@H]3CCc4c3ncn4C)cn2)cnc(N2CC3CC3C2)c1C#N (stereo partly shown) [Example 116] 6.56

###

# pIC50 annotations
# STUDY SYSTEM: PKK in kaolin activated human platelet poor plasma (Homo sapiens)
# Construct: Platelet poor plasma (PPP) obtained from human wholeblood
# METHOD NOTES: Inhibition of PKK in kaolin activated human PPP;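 further: readout is the rate of fluorogenic substrate cleavage in rfu per min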
# STATED CONDITIONS: 25-750 μg/mL kaolin, global fit, text b200 calls the values IC90
Please treat pIC50 as minus the base-10 logarithm of the molar concentration.

Fill blank: measured pIC50 of the molecule `Cn1cnc2c1CC[C@H]2NC(=O)c1cn(Cc2ccc(N3CC4(CC4)C3)nc2F)cn1` is ____. 6.52

Then this molecule: Cn1cnc2c1CC[C@H]2NC(=O)c1cn(Cc2ccc(N3CC4CC4C3)nc2C(F)F)cn1 (stereo partly shown) 6.66

Same for Cc1nc(N2CC3C(C2)C3(F)F)ncc1Cn1cc(C(=O)N[C@@H]2CCc3c2ncn3C)c2cncnc21 (stereo partly shown) 6.09

Then this molecule: Cn1cnc2c1CC[C@H]2NC(=O)c1cn(Cc2ccc(N3CC4CC4C3)cc2CO)cn1 (stereo partly shown) 6.13

Would you mind doing `Cn1cnc2c1CC[C@H]2NC(=O)c1cn(Cc2ccc(N3CC4(CC4)C3)nc2Cl)cn1` as well? 6.49

What would you report for `CCc1nc(N2CC3(CC3)C2)ccc1Cn1cc(C(=O)N[C@@H]2CCc3c2ncn3C)nn1` ? 7.00

And what about the molecule Cn1cnc2c1CC[C@H]2NC(=O)c1cnn(Cc2ccc(N3CC4CC4C3)c(C#N)c2Cl)c1 (stereo partly shown) ? 6.80

Quick one: Cn1cnc2c1CC[C@H]2NC(=O)c1cn(Cc2ccc(N3CC4CC4C3)nc2F)cn1 (stereo partly shown) 6.33

Would you mind doing Cn1cnc2c1CC[C@H]2NC(=O)c1cnn(Cc2ccc(N3CC4CC4C3)nc2C(F)(F)F)c1 (stereo partly shown) as well? 5.99

Now the molecule `Cn1cnc2c1CC[C@H]2NC(=O)c1cn(Cc2ccc(N3CC4(CC4)C3)nc2Cl)nn1` 6.56

Entry to check: COCc1nc(N2CC3C(C2)C3(F)F)ccc1Cn1cnc(C(=O)N[C@@H]2CCc3c2ncn3C)c1 (stereo partly shown) 6.24

Then what about the molecule C[C@H](O)c1nc(N2CC3CC3C2)ccc1Cn1cc(C(=O)N[C@@H]2CCc3c2ncn3C)cn1 (stereo partly shown) ? 6.23

What do you have for Cn1cnc2c1CC[C@H]2NC(=O)c1cnn(Cc2ccc(N3CC4C(C3)C4(F)F)nc2C(F)F)c1 (stereo partly shown) ? 6.79

Same lookup for Cn1cnc2c1CC[C@H]2NC(=O)c1cn(Cc2ccc(N3CC4C(C3)C4(F)F)nc2CO)cn1 (stereo partly shown) , please. 6.87

Repeat with Cc1nc(N2CC3CC3C2)ccc1Cc1ncc(C(=O)N[C@@H]2CCc3c2ncn3C)o1 (stereo partly shown) 5.37

Same question, Cn1cnc2c1CC[C@H]2NC(=O)c1cn(Cc2ccc(N3CC4C(C3)C4(F)F)cc2Cl)cn1 (stereo partly shown) this time 6.23

Param item: Cn1cnc2c1CC[C@H]2NC(=O)c1cn(Cc2ccc(N3CC4CC4C3)nc2CO)cn1 (stereo partly shown) 6.55

Also check Cn1cnc2c1CC[C@H]2NC(=O)c1cc(Cc2ccc(N3CC4CC4C3)nc2CO)no1 (stereo partly shown) 6.29

Request: CCc1nc(N2CC3C(C2)C3(F)F)ccc1Cc1cc(C(=O)N[C@@H]2CCc3c2ncn3C)n(C(C)C)n1 (stereo partly shown) 6.01
